# credit: patent US4009273A

System: pentamethylenetetrazol convulsions
Test: Anticonvulsant effect (pentamethylenetetrazol perfusion)
Type: in vivo, mice (female)
Conditions: 1 mg/Kg i.p., 1 h before perfusion
measured quantity: Dose of pentamethylenetetrazol, Tonic Crisis (mg/kg)
Numeric answer only, unit mg/kg assumed.

Identify measured Dose of pentamethylenetetrazol, Tonic Crisis corresponding to C#CCN1C2Cc3ccccc3C1c1ccccc12 (stereo not drawn)
146.4

Identify measured Dose of pentamethylenetetrazol, Tonic Crisis corresponding to CCN1C2Cc3ccccc3C1c1ccccc12 (stereo not drawn)
168.2

Identify measured Dose of pentamethylenetetrazol, Tonic Crisis corresponding to CC(=O)CN1C2Cc3ccccc3C1c1ccccc12 (stereo not drawn)
172.5

Identify measured Dose of pentamethylenetetrazol, Tonic Crisis corresponding to CN1C2Cc3ccccc3C1c1ccccc12 (stereo not drawn)
182.7

Identify measured Dose of pentamethylenetetrazol, Tonic Crisis corresponding to CCCN1C2Cc3ccccc3C1c1ccccc12 (stereo not drawn)
170.3

Identify measured Dose of pentamethylenetetrazol, Tonic Crisis corresponding to OCCN1C2Cc3ccccc3C1c1ccccc12 (stereo not drawn)
144.2
